System: OVCAR-5 ovarian
Experiment: NCI tumour cell line growth inhibition, 48 h
Where a SMILES comes first, the peptide text is derived from it. The star is where a group is joined. Boc = CC(C)(C)OC(=O)*
assayMetric: TGI

Worked cases, answers included:
molecule: COC(=O)C(C)NC(=O)C(CCSC)NC(=O)C(Cc1ccccc1)NC(=O)OC(C)(C)C (stereo not drawn) (Boc-Phe-Met-Ala-OMe; configuration not given here)
valueMeasured: > 100 µM

molecule: CC1=C(CO)C2=C(C)C3(CC3)[C@@](C)(O)C(=O)C2=C1
valueMeasured: 0.553 µM

Quick batch: TGI for everything below.
1. CC(C)=CC1CC(=[N+]=[N-])C(=O)C1(C)C (stereo not given)
2. COc1ccc(C(O)(CCC(C)C)C(CN2CCOCC2)c2ccc(Cl)cc2)cc1 (stereo not given)
3. COC1=C(Br)[C@H](O)[C@@]2(C=C1Br)CC(C(=O)NCCCOc1c(Br)cc(C(O)CNC(C)=O)cc1Br)=NO2 (stereo not given in full)
4. Cc1nc2ccc(F)cc2c2c1CCN2c1ccc(Cl)cc1

Output:
["> 100 µM", "25.7 µM", "> 10 µM", "> 100 µM"]

Field: TGI. Fill in for each record below.
1. COc1cccc(C2CC23C(=O)NC(=O)NC3=O)c1 (stereo not given)
2. O=C(O)c1ccc(C(=O)O)c2c(C(=O)O)ccc(C(=O)O)c12
3. C=CCN1CCC(O)(c2cc(C(=O)OCC)[nH]c2-c2cc(C)no2)C1 (stereo not given)
4. COC(=O)C1=C(O)c2ccc(Cl)cc2S(=O)(=O)N1C

Output:
1. > 100 µM
2. > 100 µM
3. > 100 µM
4. > 100 µM

For every listed record, write down its TGI.
1. Nc1ccn([C@H]2CO[C@@H](CO)[C@@H]2O)c(=O)n1
2. Cc1ccc(S(=O)OCc2c(C)c(C)c(COS(=O)c3ccc(C)cc3)c(C)c2C)cc1 (stereo not given)
3. Cc1cc2c(cc1C(=O)c1ccc(N)cc1)OCO2
4. COc1cc(/C=C\c2cc(OC)c(OC)c(OC)c2)cc(N/C=C\C(=O)c2cc(OC)c(OC)c(OC)c2)c1OC
5. CN(C)CCC(=O)C(=Cc1ccc(O)cc1)C(=O)CCN(C)C
6. C[Si](C)(C)/C(Br)=C\CCN1C(=O)CCC1=O
7. CCSC1=N/C(=C\c2ccc(N(C)C)cc2)C(Cl)=N1

Output:
1. > 100 µM
2. > 100 µM
3. > 100 µM
4. > 100 µM
5. > 100 µM
6. > 100 µM
7. > 100 µM

Would you mind listing TGI for each of the following molecules?
1. N=C1C(=N)c2ccccc2-c2ccccc21.N=C1C(=N)c2ccccc2-c2ccccc21.N=C1C(=N)c2ccccc2-c2ccccc21.[Cl-].[Ru+2]
2. Cn1c(Nc2ccc(C(F)(F)F)cc2)nc2cc(Oc3ccnc(-c4ncc(C(F)(F)F)[nH]4)c3)ccc21
3. c1ccc2c(c1)SCCC2NC1=NCCO1 (stereo not given)

Output:
1: 18.6 µM; 2: 17.4 µM; 3: > 100 µM
